Reference source for all entries: PubChem BioAssay (Tox21)

# procedure-summary: qHTS RealTime-Glo MT Cell Viability Assay in HEK293 cells - 32 hour (AID 1224868); also: nearly all actives have a fitted effect of over 50% in size
# condition-info: RealTime-Glo luminescence; series mostly up to 76.8 µM
Inconclusive results are not listed. Activity calls are given as the source filed them. Calls follow the shape of the dose curve; as a rule, active = well fitted cell-killing curve with a large enough effect in the repeat runs; inconclusive = weak or mixed curves, or effect the other way; inactive = flat fitted curve, though single readings scatter.
Response enum: active, inactive

Q: How did this test come out for CN(C)CCCN1c2ccccc2Sc2ccc(C(F)(F)F)cc21 ?
Result: active

Q: Write down the call the test reported for this compound. Item: CCCCOC(=O)C(C)CC (stereo not drawn)
Result: inactive

Q: Short answer needed: outcome of this test for COC(=O)C1=C(C)NC(C)=C(C(=O)OCCCN2CCC(c3ccccc3)(c3ccccc3)CC2)C1c1cccc([N+](=O)[O-])c1 (stereo not drawn) ?
Result: active

Q: Test call, this compound: CC(C)N=C(N)/N=C(\N)Nc1ccc(Cl)cc1
Result: active

Q: Kindly provide the recorded test outcome for the following compound: Brc1ccccc1-c1ccccc1
Result: inactive

Q: // return assay outcome for O=C1OC(=O)c2ccc3c4c(ccc1c24)C(=O)OC3=O
Result: inactive

Q: Please share the test call associated with CN1CN(C)CN(C)C1 .
Result: inactive

Q: Call for entry O=CC1CC1 :
Result: inactive

Q: Test call, this compound: CC[N+](CC)(CC)Cc1ccccc1
Result: inactive

Q: Hi, sorry to bother you, what did the test record for C=CC(C)C#N (stereo not drawn) ?
Result: inactive

Q: Query: recorded result category for Cc1ccc(O)cn1 in this test
Result: inactive

Q: For Cc1oc(-c2ccccc2)nc1CCOc1ccc(C[C@H](Nc2ccccc2C(=O)c2ccccc2)C(=O)O)cc1 , which call appears in the assay record?
Result: inactive

Q: So what was the verdict on O=C1c2c(O)ccc(O)c2C(=O)c2c(NCCNCCO)ccc(NCCNCCO)c21 in this test?
Result: active

Q: Per the records of this test, what outcome belongs to CCO[Si](CCCSSSSCCC[Si](OCC)(OCC)OCC)(OCC)OCC ?
Result: inactive

Q: Identify the outcome logged in this assay for the compound shown: NCCCC(O)(P(=O)(O)O)P(=O)(O)O
Result: inactive

Q: Assay outcome for C=CC(=O)OCC(O)COc1ccccc1 (stereo not drawn) : what was it?
Result: inactive

Q: Which outcome did this test record for the compound CCOC(OCC)C(=O)c1ccccc1 ?
Result: inactive

Q: Which outcome was entered for the compound CNC(=O)c1cc(Oc2ccc(NC(=O)Nc3ccc(Cl)c(C(F)(F)F)c3)cc2)ccn1 in this test?
Result: active

Q: Check the results log: what was the call for C[n+]1c2cc(N)ccc2cc2ccc(N)cc21 (tested in a mixture with another compound) ?
Result: active

Q: Call for entry C(=C/c1ccccc1)/c1ccccc1 :
Result: inactive

Q: Which outcome did this test record for the compound O=C(O)c1cccc(Cl)n1 ?
Result: inactive

Q: Returns: the outcome recorded for COc1ccc(C#N)cc1 in this assay.
Result: inactive

Q: Any idea what this test logged for C[Si](C)O[Si](C)C ?
Result: inactive

Q: Which outcome was entered for the compound CC(C)CCOCCC(C)C in this test?
Result: inactive

Q: Hi, sorry to bother you, what did the test record for CN(C)CCN1CCOCC1 ?
Result: inactive

Q: // return assay outcome for O=C1OC(OC(=O)c2cccnc2Nc2cccc(C(F)(F)F)c2)c2ccccc21 (stereo not drawn)
Result: inactive

Q: Can you look up the reported call for O=C(Nc1ccc(Cl)cc1)Nc1ccc(Cl)c(C(F)(F)F)c1 for me?
Result: active

Q: Fill in: this test's call for O=C(O)CCCCCCC(=O)O is ___
Result: inactive

Q: Can you look up the reported call for CCCC(=O)OCC(COC(=O)CCC)OC(=O)CCC for me?
Result: inactive

Q: Hello, I am checking results. What call was entered for CCCCCCCCCCCCCC[n+]1ccccc1 ?
Result: active

Q: Recorded call for COCC(=O)O[C@]1(CCN(C)CCCc2nc3ccccc3[nH]2)CCc2cc(F)ccc2[C@@H]1C(C)C ?
Result: active

Q: Per the records of this test, what outcome belongs to NCCCCCCNCCCCCCN ?
Result: inactive

Q: Hey, what did the test say about CO[Si](CCCNCCNCCN)(OC)OC ?
Result: inactive

Q: # fetch the recorded call for CC1=CCC(=O)O1 here
Result: inactive

Q: Can you look up the reported call for CCCCC(CC)COC(=O)c1ccc(O)cc1 (stereo not drawn) for me?
Result: active

Q: Test call, this compound: C=CC(=O)OCCN(CC)CC
Result: inactive

Q: Dear colleague, could you share the recorded outcome for NC(=O)C(=O)N/N=C/c1ccc([N+](=O)[O-])o1 when you have a moment?
Result: inactive

Q: Which result was noted for this compound in the test: O=C1NCCN1CCN1CCC(c2cn(-c3ccc(F)cc3)c3ccc(Cl)cc23)CC1
Result: active

Q: Called result for ClC/C=C\CCl
Result: inactive

Q: Kindly provide the recorded test outcome for the following compound: CO[C@H]1C=CO[C@@]2(C)Oc3c(C)c(O)c4c(O)c(cc(O)c4c3C2=O)NC(=O)/C(C)=C\C=C/[C@H](C)[C@H](O)[C@@H](C)[C@@H](O)[C@@H](C)[C@H](OC(C)=O)[C@@H]1C
Result: inactive

Q: Can you look up the reported call for Clc1nc2ccccc2s1 for me?
Result: inactive

Q: How was CCCCCCCCCCCCCCNCCO classified in this test?
Result: active

Q: Dear all, I need the recorded test outcome for CN(C)CCCN1c2ccccc2CCc2ccccc21 , thank you.
Result: inactive

Q: Tell me the assay call for CC(COC(=O)c1ccccc1)OC(=O)c1ccccc1 (stereo not drawn) please.
Result: inactive

Q: // param item: C/C=C/CO ; yields the recorded call
Result: inactive

Q: What call does the record list for CCN(CC)c1cccc(C)c1 ?
Result: inactive

Q: Each compound tested received a call. Report the one for CC(=O)C=O .
Result: inactive

Q: # lookup: test call for SCCCCCCCCS
Result: inactive

* * *

# procedure-summary: qHTS assay to identify small molecule antagonists of the glucocorticoid receptor (GR) signaling pathway - cell viability counter screen (AID 720693); also: nearly all actives have a fitted effect of over 55% in size
# condition-info: GR-bla HeLa viability, CellTiter-Glo luminescence, 18 h, with 5 nM dexamethasone present; series mostly up to 58.5 µM
Results filed as inconclusive are left out. Active and inactive are the calls of the source. Calls follow the shape of the dose curve; as a rule, active = well fitted cell-killing curve with a large enough effect in the repeat runs; inconclusive = weak or mixed curves, or effect the other way; inactive = no such curve, though single readings can be large or run the other way.
Hi there, use one of these labels in your reply, thanks! yes (1) (active), no (0) (inactive)

Q: Test call for this compound, please: CNCC[C@H](Oc1cccc2ccccc12)c1cccs1
Result: no (0)

Q: For O=C1c2c(O)ccc([N+](=O)[O-])c2C(=O)c2c([N+](=O)[O-])ccc(O)c21 , which call appears in the assay record?
Result: yes (1)

Q: What is the recorded call for this compound in the test? CCN(CC)CCCN(c1ccccc1)C1Cc2ccccc2C1
Result: yes (1)

Q: Hey, what did the test say about Clc1ccc(C(c2ccccc2Cl)C(Cl)Cl)cc1 (stereo unspecified) ?
Result: no (0)

Q: Test call for this compound, please: CCCC(CC)CCCCCCCN (stereo unspecified)
Result: no (0)

Q: Could you check what this test reported for N[C@@H](CSSC[C@H](N)C(=O)O)C(=O)O ?
Result: no (0)

* * *

# subject-of-test: Nuclear receptor ROR-gamma (Homo sapiens) (UniProt P51449)
# procedure-summary: qHTS assay to identify small molecule antagonists of the retinoid-related orphan receptor gamma (ROR-gamma) signaling pathway (AID 1159521; also: nearly all actives have a fitted effect of over 50% in size)
# condition-info: Tet-on RORgamma CHO cells, RORE-luciferase, 16 h; series mostly up to 92.4 µM
Records with an inconclusive call do not appear. Active and inactive are the calls of the source. Calls follow the shape of the dose curve; as a rule, active = well fitted inhibition curve with a large enough effect in the repeat runs; inconclusive = weak or mixed curves, or effect the other way; inactive = no such curve, though single readings can be large or run the other way.
Respond with a class label; see true (1) = active, false (0) = inactive

Q: For CCCCCCCCCCOCC(O)CN (centres undefined) , what call appears in the results of this test?
Result: true (1)

Q: Please share the test call associated with C=CC/C=C/C/C=C/C/C=C/C .
Result: false (0)

Q: Per the records of this test, what outcome belongs to CCC1(c2cnc[nH]2)Cc2ccccc2C1 ?
Result: false (0)

Q: Short answer needed: outcome of this test for C=CC(=O)OCC(O)COc1ccccc1 (centres undefined) ?
Result: true (1)

Q: Each compound tested received a call. Report the one for C/C=C/CO .
Result: false (0)

Q: How was Cc1cc2c(C(C)C)c(O)c(O)c(C=O)c2c(O)c1-c1c(C)cc2c(C(C)C)c(O)c(O)c(C=O)c2c1O classified in this test?
Result: true (1)

Q: How did this test come out for C/C=C/C=N/NC(=O)c1ccncc1 ?
Result: false (0)

Q: Give the logged outcome of this assay for the following compound: C/C=C/C(=O)C1=C(C)CCCC1(C)C
Result: false (0)

Q: GET /call?item= CCCCCCCOC(=O)c1ccc(O)cc1 returns the recorded outcome of this test.
Result: false (0)

Q: Record request — test call for CCCCCCCC/C=C/CCCOC(C)=O
Result: false (0)

Q: Recorded test call requested for Cc1cccc(C)n1
Result: false (0)

Q: Which outcome did this test record for the compound COc1cc(C(=O)NS(=O)(=O)c2ccccc2C)ccc1Cc1cn(C)c2ccc(NC(=O)OC3CCCC3)cc12 ?
Result: false (0)

Q: Could you check what this test reported for COc1ccc2sc(C(=O)Nc3nnn[nH]3)c(OC(C)C)c2c1 ?
Result: true (1)

Q: Could you please tell me the result logged for O=c1cccc[nH]1 in this assay?
Result: false (0)
